- assay.target: T1, Human BCMA (human, UniProt Q02223 1-54, limits assumed)
- T1 construct: Soluble analyte in SPR; construct not described; also called huBCMA; B-cell maturation antigen
- T1 sequence (looked up): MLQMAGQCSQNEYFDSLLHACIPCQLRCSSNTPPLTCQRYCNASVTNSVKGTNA
- assay.notes: SPR, IgG immobilised, 37 C
parameter: pKd
The scale used: pKd is minus the common logarithm of the concentration in molar units.

// below: answered binders
INSERT INTO measurements (binder, numeric_result) VALUES
  ('L3.PY/L1.FF/H3.AQ (antibody, V domains shown, IgG) VH: EVQLLESGGGLVQPGGSLRLSCAASGFTFGSYAMTWVRQAPGKGLEWVSAISGSGGNTFYADSVKGRFTISRDNSKNTLYLQMNSLRAEDTAVYYCARVSPIAAQMDYWGQGTLVTVSS VL: EIVLTQSPGTLSLSPGERATLSCRASQSVSSFFLAWYQQKPGQAPRLLIYGASSRATGIPDRFSGSGSGTDFTLTISRLEPEDFAVYYCQHYPYPPSFTFGQGTKVEIK', 9.34),
  ('L3.PY/L1.PH/P6E01 (antibody, V domains shown, IgG) VH: EVQLLESGGGLVQPGGSLRLSCAASGFTFGSYAMTWVRQAPGKGLEWVSAISGSGGNTFYADSVKGRFTISRDNSKNTLYLQMNSLRAEDTAVYYCARVSPIASGMDYWGQGTLVTVSS VL: EIVLTQSPGTLSLSPGERATLSCRASQSVSPHYLAWYQQKPGQAPRLLIYGASSRATGIPDRFSGSGSGTDFTLTISRLEPEDFAVYYCQHYPYPPSFTFGQGTKVEIK', 9.49);

Let us move to another entry and its pKd.
// L3.PY/H2.QL (antibody, V domains shown, IgG) VH: EVQLLESGGGLVQPGGSLRLSCAASGFTFGSYAMTWVRQAPGKGLEWVSAISGSGGNTFYADQLKGRFTISRDNSKNTLYLQMNSLRAEDTAVYYCARVSPIASGMDYWGQGTLVTVSS VL: EIVLTQSPGTLSLSPGERATLSCRASQSVSSSYLAWYQQKPGQAPRLLIYGASSRATGIPDRFSGSGSGTDFTLTISRLEPEDFAVYYCQHYPYPPSFTFGQGTKVEIK : pKd value = 9.09

// provenance: patent US20160297884A1
